System: Pseudomonas aeruginosa
test method notes: Compound was tested for antibacterial activity against gram negative Pseudomonas aeruginosa PAO1
Format: functional
conditions used: Pseudomonas aeruginosa; read-out: MIC
quantity measured: MIC (µg/mL)

COc1c(N2C[C@H](CO)[C@H](C(F)(F)F)C2)c(F)cc2c(=O)c(C(=O)O)cn(C3CC3)c12 | 3.13
COc1c(N2C[C@H](CN)[C@@H](C(F)(F)F)C2)c(F)cc2c(=O)c(C(=O)O)cn(C3CC3)c12.Cl | 6.25
NC1CCN(c2nc3c(cc2F)c(=O)c(C(=O)O)cn3-c2ccc(F)cc2F)C1 (stereo unspecified) | 0.39
COc1c(N2C[C@@H](C(F)(F)F)[C@@H](N)C2)c(F)cc2c(=O)c(C(=O)O)cn(C3CC3)c12.Cl | 3.13
CC1COc2c(N3CCN(C)CC3)c(F)cc3c(=O)c(C(=O)O)cn1c23 (stereo unspecified) | 1.56

====

Test system: Staphylococcus aureus
test method notes: Compound was tested for antibacterial activity against gram positive Staphylococcus aureus JS-1
Assay type: functional
conditions used: Staphylococcus aureus; read-out: MIC
quantity measured: MIC

COc1c(N2C[C@H](CO)[C@H](C(F)(F)F)C2)c(F)cc2c(=O)c(C(=O)O)cn(C3CC3)c12 | ≤ 6 ng/mL
COc1c(N2C[C@H](CN)[C@H](C(F)(F)F)C2)c(F)cc2c(=O)c(C(=O)O)cn(C3CC3)c12.Cl | ≤ 6 ng/mL
COc1c(N2C[C@@H](CN)[C@H](C)C2)c(F)cc2c(=O)c(C(=O)O)cn(C3CC3)c12.Cl | ≤ 6 ng/mL
